Data provenance is patent US20230265116A1.

Catalogue of DC50 values
Target: EGFR L858R/T790M/C797S (BaF3-LTC cells) (Homo sapiens, UniProt P00533, C797S/L858R/T790M)
Construct: expressed in transfected cells; host or cells: BaF3
Sequence (P00533 25-1210 T790M/C797S/L858R): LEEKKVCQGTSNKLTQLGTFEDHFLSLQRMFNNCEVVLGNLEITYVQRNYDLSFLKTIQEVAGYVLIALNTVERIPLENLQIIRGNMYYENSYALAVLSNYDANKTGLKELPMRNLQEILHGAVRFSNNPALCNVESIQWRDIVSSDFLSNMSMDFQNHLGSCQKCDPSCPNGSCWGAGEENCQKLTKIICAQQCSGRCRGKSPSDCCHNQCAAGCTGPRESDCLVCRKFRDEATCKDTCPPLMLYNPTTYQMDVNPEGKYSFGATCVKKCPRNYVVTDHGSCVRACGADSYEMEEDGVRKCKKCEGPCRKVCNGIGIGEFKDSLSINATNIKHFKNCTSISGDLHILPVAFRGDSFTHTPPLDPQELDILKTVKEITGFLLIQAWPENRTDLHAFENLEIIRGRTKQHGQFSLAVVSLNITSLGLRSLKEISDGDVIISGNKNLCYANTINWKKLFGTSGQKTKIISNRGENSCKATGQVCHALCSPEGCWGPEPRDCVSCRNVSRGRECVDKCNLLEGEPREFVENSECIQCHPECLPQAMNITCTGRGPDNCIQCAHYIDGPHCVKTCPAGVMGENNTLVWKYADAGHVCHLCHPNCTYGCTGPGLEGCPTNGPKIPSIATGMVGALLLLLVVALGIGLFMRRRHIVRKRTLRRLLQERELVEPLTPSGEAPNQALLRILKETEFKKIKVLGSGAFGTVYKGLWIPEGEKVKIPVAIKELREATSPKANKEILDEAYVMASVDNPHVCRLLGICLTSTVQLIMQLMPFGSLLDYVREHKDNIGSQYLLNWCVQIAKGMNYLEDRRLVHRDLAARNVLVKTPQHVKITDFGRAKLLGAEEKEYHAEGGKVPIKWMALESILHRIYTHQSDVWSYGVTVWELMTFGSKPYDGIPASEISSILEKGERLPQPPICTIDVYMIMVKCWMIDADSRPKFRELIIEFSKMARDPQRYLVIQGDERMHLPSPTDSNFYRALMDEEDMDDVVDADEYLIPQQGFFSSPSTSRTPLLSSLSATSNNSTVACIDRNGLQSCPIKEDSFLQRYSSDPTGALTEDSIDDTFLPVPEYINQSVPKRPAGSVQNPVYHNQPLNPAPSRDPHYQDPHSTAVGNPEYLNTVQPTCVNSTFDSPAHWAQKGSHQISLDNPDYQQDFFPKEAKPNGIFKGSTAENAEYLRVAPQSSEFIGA
Test: EGFR degradation HTRF assay, BaF3-LTC cells
Format: cell-based
Settings: BaF3-LTC cells; EGFR degradation, IC50 (DC50) from curve fit; read-out: DC50(nM) BaF3-LTC
API: value field is a number in nM; no unit string.

Solved cases (2 shown):
CCc1cc(Nc2ncc(Br)c(Nc3ccc4nc(C)ccc4c3P(C)(C)=O)n2)c(OC)cc1N1CCC(N2CCN(CCc3cccc4c3C(C)(C)C(=O)N4C3CCC(=O)NC3=O)CC2)CC1 (stereo not shown): 3.51
CCOc1cc(N2CCC(N3CCN(C(=O)[C@H]4CN(c5cc(F)c([C@H]6CCC(=O)NC6=O)c(F)c5)CC4(C)C)CC3)CC2)c(C)cc1Nc1ncc(Br)c(Nc2ccc3nc(C)ccc3c2P(C)(C)=O)n1: 8.61

Data point: CCOc1cc(N2CCC(N3CCN(CC4CCN(c5cccc6c5oc(=O)n6C5CCC(=O)NC5=O)CC4)CC3)CC2)c(CC)cc1Nc1ncc(Br)c(Nc2ccc3c(=O)n(CC)ncc3c2P(C)(C)=O)n1 (stereo not shown) ; DC50 = 8.54

Data point: CCOc1cc(N2CCC(N3CCN(CCc4cccc5c4C4(CC4)C(=O)N5C4CCC(=O)NC4=O)CC3)CC2)c(CC)cc1Nc1ncc(Br)c(Nc2ccc3nc(CC)ccc3c2P(C)(C)=O)n1 (stereo not shown) ; DC50 = 3.49

Data point: CCOc1cc(N2CCC(N3CCN(CCc4cc(F)c([C@H]5CCC(=O)NC5=O)c(F)c4)CC3)CC2)c(CC)cc1Nc1ncc(Br)c(Nc2cc(F)c3ncc(C)cc3c2P(C)(C)=O)n1 ; DC50 = 6.6

Data point: CCc1cc(Nc2ncc(Br)c(Nc3ccc4nc(NC5CC5)ccc4c3P(C)(C)=O)n2)c(OC)cc1N1CCC(N2CCN(CCc3cc(F)c([C@H]4CCC(=O)NC4=O)c(F)c3)CC2)CC1 ; DC50 = 7.19

Data point: CCc1cc(Nc2ncc(Br)c(Nc3cc(F)c4nc(C)ccc4c3P(C)(C)=O)n2)c(OC)cc1N1CCC(N2CCN(CCc3cc(F)c([C@H]4CCC(=O)NC4=O)c(F)c3)CC2)CC1 ; DC50 = 3.89
